Consider the following molecules and their measured pIC50 readings.
experiment: Compound was tested in vitro for inhibition of [125I](Leu15)-HG-17 binding to isolated gastric mucosal cells.; format: tissue-based, Rattus norvegicus, Gastric mucosa
Residues, ends and D or L forms follow the SMILES beside them. *: point of attachment. Boc = CC(C)(C)OC(=O)*
Please keep in mind that pIC50 is minus log10 of the molar concentration; only the number is needed.

Consider the reported pIC50 for these molecules:
| molecule | pIC50 |
| --- | --- |
| CC(C)C[C@H](NC[C@H](Cc1c[nH]c2ccccc12)NC(=O)OC(C)(C)C)C(=O)N[C@@H](CC(=O)O)C(=O)N[C@@H](Cc1ccccc1)C(N)=O | 6.52 |
| CC(C)C[C@H](NC(=O)[C@H](Cc1c[nH]c2ccccc12)NC(=O)OC(C)(C)C)C(=O)N[C@@H](CC(=O)O)C(=O)N[C@@H](Cc1ccccc1)C(N)=O (Boc-WLDF-NH2) | 6.30 |
| CC(C)C[C@@H](CN[C@@H](CC(=O)O)C(=O)N[C@@H](Cc1ccccc1)C(N)=O)NC(=O)[C@H](Cc1c[nH]c2ccccc12)NC(=O)OC(C)(C)C | 6.60 |

*Q* // fetch pIC50 given entry `CC(C)C[C@H](NC(=O)[C@H](Cc1c[nH]c2ccccc12)NC(=O)OC(C)(C)C)C(=O)N[C@H](CN[C@@H](Cc1ccccc1)C(N)=O)CC(=O)O`
*A* 5.30
